- System under test: recombinant human GST-SYK (Homo sapiens, UniProt P43405)
- Construct: purchased Carna Biosciences 08-176
- Method summary: Homogeneous Time-Resolved Fluorescence (HTRF) assay for the recombinant human Syk enzyme
- Type: biochemical
- Cond: HTRF assay, recombinant human GST-SYK; IC50 given as class symbols; read-out: rhSYK Activity
Assay endpoint: IC50

// worked examples, IC50 included
[[record]]
molecule = "Cc1cc(Nc2nccc(C(F)(F)F)n2)cc(-c2ccc(N3CC(C4CCCC(C(=O)O)C4)C3)nc2)c1 (centres unmarked)"
value_measured = "< 100 nM"

[[record]]
molecule = "Cc1cc(Nc2nccc(C(F)(F)F)n2)cc(-c2ccc(CCc3noc(=O)[nH]3)nc2)c1"
value_measured = "< 100 nM"

[[record]]
molecule = "Cc1cc(Nc2nccc(C(F)(F)F)n2)cc(-c2ccc(NC3COC3)nc2)c1"
value_measured = "< 100 nM"

[[record]]
molecule = "Cc1cc(Nc2nccc(C(F)(F)F)n2)cc(-c2ccnc(N3CCC(C(=O)O)CC3)c2)c1"
value_measured = "< 100 nM"

[[record]]
molecule = "Cc1cc(Nc2nccc(C(F)(F)F)n2)cc(-c2ccc(N3CC(O)C3)nc2)c1"
value_measured = "< 100 nM"


Give IC50 for each listed item.
1. COc1ccnc(Nc2cc(C)cc(-c3ccc(N[C@H]4CC[C@H](C(=O)O)CC4)nc3)c2)n1
2. Cc1cc(Nc2nccc(C(F)(F)F)n2)cc(-c2ccnc(N3CCC[C@H]3C(N)=O)c2)c1
3. Cc1cc(Nc2nccc(C(F)(F)F)n2)cc(-c2ccc(N(C)CCC3OCCO3)nc2)c1
4. CCN1CCN(c2cc(-c3cc(C)cc(Nc4nccc(C(F)(F)F)n4)c3)ccn2)CC1
5. Cc1cc(Nc2nccc(C(F)(F)F)n2)cc(-c2ccc(NS(=O)(=O)N3CCCCC3)nc2)c1
6. Cc1cc(Nc2nccc(C(F)(F)F)n2)cc(-c2ccnc(NCc3cnn(C)c3)c2)c1

1: < 100 nM; 2: < 100 nM; 3: 100 to 1000 nM; 4: 100 to 1000 nM; 5: 100 to 1000 nM; 6: 100 to 1000 nM

====

- System under test: recombinant human GST-SYK (Homo sapiens, UniProt P43405)
- Construct: purchased Carna Biosciences 08-176
- Method summary: Homogeneous Time-Resolved Fluorescence (HTRF) assay for the recombinant human Syk enzyme
- Format: biochemical
- Cond: HTRF assay, recombinant human GST-SYK; IC50 given as class symbols; read-out: rhSYK Activity
pIC50: −log10 of the molar value.
What pIC50 was measured for each of the following?

// worked examples, pIC50 included
[[record]]
compound = "O=c1[nH]c2cc(-c3cccc(Nc4nccc(C(F)(F)F)n4)c3)cnc2[nH]1 [Example 2.44]"
assay_endpoint = "pIC50"
value_measured = "> 7.00"

[[record]]
compound = "Cc1cc(Nc2nccc(C(F)(F)F)n2)cc(-c2ccc(N[C@H]3CCC(=O)NC3)nc2)c1 [Example 7.52]"
assay_endpoint = "pIC50"
value_measured = "> 7.00"

[[record]]
compound = "Cc1cc(Nc2nccc(C(F)(F)F)n2)cc(-c2ccc(N3CCN(C)C(=O)C3C)nc2)c1 (centres unmarked) [Example 7.55]"
assay_endpoint = "pIC50"
value_measured = "> 7.00"

[[record]]
compound = "Cc1cc(Nc2nccc(C(F)(F)F)n2)cc(-c2ccc(C(=O)NC3CCOC3)nc2)c1 (centres unmarked) [Example 16.33]"
assay_endpoint = "pIC50"
value_measured = "6.00 to 7.00"

[[record]]
compound = "Cc1cc(Nc2nccc(C(F)(F)F)n2)cc(-c2ccc(C(=O)NCC3COCCO3)nc2)c1 (centres unmarked) [Example 16.31]"
assay_endpoint = "pIC50"
value_measured = "6.00 to 7.00"

[[record]]
compound = "Cc1cc(Nc2nccc(C(F)(F)F)n2)cc(-c2ccnc(NC3CNC(=O)C3)c2)c1 (centres unmarked) [Example 15.74]"
assay_endpoint = "pIC50"
value_measured = "> 7.00"


Give pIC50 for each listed item.
1. CCCOC1CCCN(c2cc(-c3cc(C)cc(Nc4nccc(C(F)(F)F)n4)c3)ccn2)C1 (centres unmarked) [Example 15.79]
2. Cc1cc(Nc2nccc(C(F)(F)F)n2)cc(-c2cncc(C(=O)NCC(O)CO)c2)c1 (centres unmarked) [Example 15.90]
3. Cc1cc(Nc2nccc(C(F)(F)F)n2)cc(-c2ccc(C(=O)N3CC[C@H](CO)C3)nc2)c1 [Example 16.43]
4. CNC(=O)CNC(=O)c1ccc(-c2cc(C)cc(Nc3nccc(C(F)(F)F)n3)c2)cn1 [Example 16.63]
5. CC(=O)c1ccc(-c2cc(C)cc(Nc3nccc(C(F)(F)F)n3)c2)cn1 [Example 2.113]
6. Cc1cc(Nc2nccc(C(F)(F)F)n2)cc(-c2cc(CCC(=O)O)ccn2)c1 [Example 2.22]
7. Cc1cc(Nc2nccc(C(F)(F)F)n2)cc(-c2ccnc(NCC(C)(C)O)c2)c1 [Example 15.60]

1. 5.00 to 6.00
2. > 7.00
3. > 7.00
4. 6.00 to 7.00
5. 6.00 to 7.00
6. > 7.00
7. 6.00 to 7.00

Give pIC50 for each listed item.
1. Cc1cc(Nc2nccc(C(F)(F)F)n2)cc(-c2ccc(NCCN)nc2)c1 [Example 7.25A]
2. Cc1cc(Nc2nccc(C(F)(F)F)n2)cc(-c2ccc(C(=O)N3CCN(C)CC3)nc2)c1 [Example 16.12]
3. Cc1cc(Nc2nccc(C(F)(F)F)n2)cc(-c2ccnc(N3CCCC4(CCCNC4=O)C3)c2)c1 (centres unmarked) [Example 15.27]
4. CNC(=O)NCc1ccc(-c2cc(C)cc(Nc3nccc(C(F)(F)F)n3)c2)cn1 [Example 17.3]
5. Cc1cc(Nc2nccc(C(F)(F)F)n2)cc(-c2ccc(CCC(=O)O)cn2)c1 [Example 2.30]
6. Cc1cc(Nc2nccc(C(F)(F)F)n2)cc(-c2ccc(C(F)(F)F)nc2)c1 [Example 4.6]
7. Cc1cc(Nc2nccc(C(F)(F)F)n2)cc(-c2cnc3c(c2)OCCN3C)c1 [Example 2.55]

1: > 7.00; 2: 6.00 to 7.00; 3: > 7.00; 4: > 7.00; 5: > 7.00; 6: 6.00 to 7.00; 7: > 7.00

Give pIC50 for each listed item.
1. CCC(O)(CC)c1cccc(-c2cccc(Nc3nccc(C(F)(F)F)n3)c2)n1 [Example 2.4]
2. Cc1cc(Nc2nccc(C(F)(F)F)n2)cc(-c2ccc(CCC#N)nc2)c1 [Example 13.1]

6.00 to 7.00
> 7.00

Give pIC50 for each listed item.
1. Cc1cc(Nc2nccc(C(F)(F)F)n2)cc(-c2ccc(C(=O)NC3(CO)CCCC3)nc2)c1 [Example 16.21]
2. O=C1NCCC1Nc1ccc(-c2cccc(Nc3nccc(C(F)(F)F)n3)c2)cn1 (centres unmarked) [Example 7.124]
3. COc1cccc(-c2cc(C)cc(Nc3nccc(C(F)(F)F)n3)c2)n1 [Example 4.9]
4. O=C(O)[C@@H]1CCN1c1ccc(-c2cc(F)cc(Nc3nccc(C(F)(F)F)n3)c2)cn1 [Example 7.127]

["6.00 to 7.00", "> 7.00", "6.00 to 7.00", "> 7.00"]
